Origin of the recorded values: paper PMC5540273

Parameter %Inh: see the listing below.
System: TNK1
EXPERIMENTAL_SETUP: concentration: 1 μM, replicates: in singlicate; n = 1;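 note: KINOMEscan kinase panel screen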
Lab book: enter the figure in %, no units written.

For orientation, consider the following solved cases.
>  <MOLECULE>
Cc1ccc(-c2cc(-c3c[nH]nc3-c3ccccn3)ccn2)cc1

>  <U>
%

>  <%Inh>
19

$$$$
>  <MOLECULE>
Cn1ccc2ncnc(Oc3ccc(NC(=O)Nc4ccccc4)cc3)c21

>  <U>
%

>  <%Inh>
0

$$$$
>  <MOLECULE>
CC(C)(C)c1ccc(C(=O)Nc2cn3cc(-c4cccnc4)ccc3n2)cc1

>  <U>
%

>  <%Inh>
0

$$$$
>  <MOLECULE>
Cc1ccccc1-n1cnc2c(N)ncnc21

>  <U>
%

>  <%Inh>
0

$$$$

Query: Item under review: Cn1cncc1-c1ccc2ncnc(Nc3ccc(OCc4ccccc4)cc3)c2c1 . Reported %Inh?
Response: 0

Query: Recorded %Inh of Cc1ccc(NC(=O)Nc2cccc(Cl)c2)cc1-c1ccc(C(=O)Nc2ccncc2)cc1 , please.
Response: 0

Query: Given Cn1ccc2ncnc(Oc3cccc(C(=O)Nc4ccccc4)c3)c21 , state its recorded %Inh.
Response: 3

Query: %Inh; subject: COc1cc2nccc(Nc3ccc(NC(=O)c4ccc(C)cc4)c(O)c3)c2cc1OC.Cl
Response: 26

Query: What value of measured %Inh is listed for COc1cc2ncn(-c3cc(OCC4CCCO4)c(C(N)=O)s3)c2cc1OC (centres unmarked) ?
Response: 0

Query: Given O=C(Nc1ccccc1)Nc1cccc(Oc2ccc3nccn3n2)c1 , state its recorded %Inh.
Response: 23

Query: Look at this molecule and give its reported %Inh. CCn1c(-c2ccccn2)nc2cnccc21
Response: 7

Query: For the molecule CC(=O)Nc1nc2cnc(Nc3cc(NC(=O)c4cccc(CCC#N)c4)ccc3C)nc2s1 , what %Inh is on record?
Response: 0

Query: Give the measured %Inh of O=C1NC(=O)C(N2CCc3ccccc32)=C1c1ccccc1Cl .
Response: 3

Query: Any idea what %Inh was measured for Cc1csc(-c2nc(Nc3ccncc3)c3ccccc3n2)n1 ?
Response: 21

Query: What does the data say about its %Inh? Entry: O=C(O)COc1ncnc2cc(-c3ccc4[nH]ncc4c3)sc12
Response: 0

Query: // query %Inh value for entry Cc1c(O)cccc1Nc1ccnc2ccc(C(F)(F)F)cc12.Cl
Response: 0

Query: So what's the measured %Inh for this one? CN(C)CCN(C)C(=O)c1cc(-c2ccncc2)c(-c2ccc(Cl)c(O)c2)o1.Cl.Cl
Response: 2

Query: Which %Inh value belongs to COc1cc(Nc2nccc(N3CCC(NC(=O)Nc4cc(C)ccc4C)C3)n2)cc(OC)c1OC (centres unmarked) ?
Response: 14

Query: Returns the measured %Inh for the input molecule. Input: CS(=O)(=O)c1ccc(-c2c(-c3ncn[nH]3)sc(N3CCOCC3)c2C#N)cc1
Response: 55

Query: Entry Fc1cc(Cl)ccc1Nc1ccnc2cc(-c3ccc(CN4CCCCC4)o3)ccc12 has what %Inh?
Response: 0

Query: Find the recorded %Inh belonging to Cl.NC(=O)c1cccc(Nc2nccc(Nc3ccc(Oc4cccc(Cl)c4)c(Cl)c3)n2)c1 and report it.
Response: 77

Query: Given the entry COc1ccc(Nc2nccc(NCCNC(=O)Nc3ccccc3F)n2)cc1 , report its measured %Inh.
Response: 0

Query: What %Inh value was documented for this molecule, C[C@@H]1CCCCN1c1cc(-c2ccc3c(N)n[nH]c3c2)nc(N)n1 ?
Response: 0

* * *

Test system: RSK2(Kin.Dom.2-C-terminal)
Construct: gene RPS6KA3
EXPERIMENTAL_SETUP: concentration: 1 μM, replicates: in singlicate; n = 1
METRIC_NAME: %Inh (%)
All answers are understood in %, so give the number only.

>  <COMPOUND>
Cc1cccc(-c2nc(Nc3ccc4[nH]ncc4c3)c3ccccc3n2)n1

>  <%Inh / %>
23

$$$$
>  <COMPOUND>
CN1C(=O)C(Nc2ccc(Cl)c(C(=O)O)c2)=C(c2ccc(Cl)cc2)C1=O

>  <%Inh / %>
8

$$$$
>  <COMPOUND>
Cn1ccc2ncnc(Oc3ccc(Nc4nc5ccccc5[nH]4)cc3)c21

>  <%Inh / %>
0

$$$$

Query: What value of %Inh has been reported for the following compound? Nc1nc(-c2nccs2)c(-c2ccnc3ccccc23)s1
Response: 88

Query: # get_value(readout='%Inh', item= Cc1ccc(NC(=O)Nc2cccc(Cl)c2)cc1-c1ccc(C(=O)Nc2ccncc2)cc1 )
Response: 0

Query: Need %Inh of COc1ccc(CNC(=O)NC2CCN(c3ccnc(Nc4cc(OC)c(OC)c(OC)c4)n3)C2)cc1 (stereo not shown) , thanks.
Response: 15

Query: Dear colleague, I am looking for the recorded %Inh of the following compound: Fc1cc(Cl)ccc1Nc1ccnc2cc(I)ccc12
Response: 32

Query: Bench note: what %Inh did COc1cc2ncn(-c3cc(OCC4CCCO4)c(C(N)=O)s3)c2cc1OC (stereo not shown) show?
Response: 0

* * *

System: PIP5K1A
EXPERIMENTAL_SETUP: concentration: 1 μM, replicates: in singlicate; n = 1
METRIC_NAME: %Inh (%)
Give just the number in %; leave the unit off.

>  <COMPOUND>
CC1=C(C(=O)Nc2cc3cn[nH]c3cc2F)C(c2ccc(C(F)(F)F)cc2)CC(=O)N1 (centres unmarked)

>  <U>
%

>  <%Inh>
0

$$$$

Query: Please give the measured %Inh for this compound: Cl.Oc1ccc(-c2nc(-c3ccccc3)[nH]c2-c2ccncc2)cc1
Response: 72

Query: Entry CSc1nn2c(=O)cc(N3CCOCC3)nc2n1Cc1cccc(C(F)(F)F)c1C : reported %Inh = ?
Response: 0

Query: Fill in: %Inh of COc1ccc(C2=C(Nc3cccc(C(=O)O)c3)C(=O)NC2=O)cc1 is ___
Response: 13

Query: What value of %Inh has been reported for the following compound? Cl.O=C(Nc1cccc(-c2nn3ncccc3c2-c2ccnc(Nc3cccnc3)n2)c1)c1c(F)cccc1F
Response: 2

Query: Report %Inh for Clc1cc(Cl)cc(Nc2ccnc(Nc3cc(Cl)cc(Cl)c3)n2)c1 please.
Response: 9

* * *

System: NEK3
EXPERIMENTAL_SETUP: concentration: 1 μM, replicates: in singlicate; n = 1
METRIC_NAME: %Inh (%)
Response body: numeric value in %, unit text excluded.

The examples below pair each entry with its known result.
>  <COMPOUND>
O=C(O)COc1ncnc2cc(-c3ccc4[nH]ncc4c3)sc12

>  <MEASURED_ON>
NEK3

>  <%Inh / %>
87

$$$$
>  <COMPOUND>
O=C(Nc1n[nH]c2nc(-c3nccs3)c(Br)cc12)C1CCCC1

>  <MEASURED_ON>
NEK3

>  <%Inh / %>
14

$$$$
>  <COMPOUND>
Cc1c(O)cccc1Nc1ccnc2ccc(C(F)(F)F)cc12.Cl

>  <MEASURED_ON>
NEK3

>  <%Inh / %>
0

$$$$
>  <COMPOUND>
COc1ccc(CNC(=O)NC2CCN(c3ccnc(Nc4cc(OC)c(OC)c(OC)c4)n3)C2)cc1 (centres unmarked)

>  <MEASURED_ON>
NEK3

>  <%Inh / %>
20

$$$$
>  <COMPOUND>
COc1cc2ncnc(Nc3ccc4nc(-c5ccccc5)[nH]c4c3)c2cc1OC.Cl

>  <MEASURED_ON>
NEK3

>  <%Inh / %>
0

$$$$

Query: Please give the measured %Inh for this compound: Cc1c(Cn2ccn3c(=O)cc(N4CCOCC4)nc23)cccc1C(F)(F)F
Response: 0

Query: Fill in the blank: the reported %Inh of Fc1cc(Cl)ccc1Nc1ccnc2cc(I)ccc12 is ____.
Response: 0

Query: Name the reported %Inh value associated with the compound Cl.NC(=O)c1cccc(Nc2nccc(Nc3ccc(Oc4cccc(Cl)c4)c(Cl)c3)n2)c1
Response: 0

* * *

# Lookup of reported %Inh keyed by entry
Tested on: PHKG1
EXPERIMENTAL_SETUP: concentration: 1 μM, replicates: in singlicate; n = 1
Enter your answer as a number in %; do not include the unit.

Here's what some known entries look like.
>  <COMPOUND>
CCCc1ccc(S(=O)(=O)NC2CCN(c3ccnc(Nc4ccc(F)cc4)n3)C2)cc1 (centres unmarked) [GSK1379715]

>  <MEASURED_ON>
PHKG1

>  <U>
%

>  <%Inh>
0

$$$$
>  <COMPOUND>
COc1ccc(C2=C(Nc3cccc(C(=O)O)c3)C(=O)NC2=O)cc1 [SB-390765]

>  <MEASURED_ON>
PHKG1

>  <U>
%

>  <%Inh>
0

$$$$
>  <COMPOUND>
Cl.NC(=O)c1cccc(Nc2nccc(Nc3ccc(Oc4cccc(Cl)c4)c(Cl)c3)n2)c1 [GW659008]

>  <MEASURED_ON>
PHKG1

>  <U>
%

>  <%Inh>
4

$$$$

Query: Look up %Inh with PHKG1 for this compound: Cc1cc(NCC(c2ccccc2)c2ccccc2)nc(NCc2ccc(C(F)(F)F)cc2)n1 [GW497681]
Response: 0

Query: Record CCn1c(-c2ccccn2)nc2cnccc21 [SB-736398] : what is its %Inh with PHKG1?
Response: 0
